The reported numbers originate from PubChem BioAssay AID493223.

Listed here: items and their measured EC50.
target.or.test.system: Transient receptor potential cation channel C4 (TRPC4), mouse
test: TRPC4 positive allosteric modulators, dose response, cell-based, HEK293 TRPC4, Fluo-4 calcium flux (AID 493223)
measurement.context: HEK293 TRPC4 cells, Fluo-4 calcium fluorescence ratio

Exercise: Recorded EC50 for "CN(C)CCN(C)Cc1cc(Br)ccc1O" with Transient receptor potential cation channel C4 (TRPC4), mouse, please?
Key: 1780 nM

Moving on to another molecule below.
Exercise: Recorded EC50 for "CCN1CCN(Cc2cc(Br)ccc2O)CC1" with Transient receptor potential cation channel C4 (TRPC4), mouse, please?
Key: 860 nM
